MEASURE: melting point

• CCOC(=O)C(=O)c1ccc(-c2ccc(-c3ccccc3)cc2)o1 = 91 to 94 °C

We next turn to a different compound, shown below.
Fill in: melting point of CC(C)N(CCS(=O)(=O)c1ccc(F)cc1)C(=O)Oc1ccccc1 is ___ 94 to 95 °C

---

MEASURE: melting point

Example entries and their recorded answers appear below.
• CCC1SC(NC)=NN1C(=O)C(C)(C)C (centres undefined) = 78.5 to 80 °C
• CCCc1c(OCc2ccc(Cc3nnn[nH]3)cc2)ccc(C(C)=O)c1O = 184 to 187 °C
• CC(C)(C)OC(=O)N1CCCN(c2cncc(-c3cccc([N+](=O)[O-])c3)c2)CC1 = 129 to 130 °C

Fill in: melting point of COc1ccc(CN2C(=O)C(C)(c3cc(CO)ccc3Cl)c3cc(Cl)ccc32)c(OC)c1 (centres undefined) is ___ 97 °C

Fill in: melting point of CC1CS/C(=N/N=C\c2ccc(-c3ncn(-c4ccc(OC(F)(F)F)cc4)n3)cc2)N(c2ccccc2C(C)C)C1 (centres undefined) is ___ 186 to 190 °C
